Quick reference for normalised growth rate inhibition among some compounds
# System: SKBR3
# assay-text: normalised growth rate inhibition (GR value) relative to DMSO control (GR (1 = untreated growth, 0 = cytostasis, <0 = cytotoxic)); higher = less growth inhibition
# experimental-conditions: 0.37 µM; 72 h
Output: the number by itself.

Query string: GET /values?readout=normalised growth rate inhibition&item= Oc1cccc(-c2nc(N3CCOCC3)c3oc4ncccc4c3n2)c1
Result string: 0.221

Query string: GET /values?readout=normalised growth rate inhibition&item= CC[C@@H]1C(=O)N(C)c2cnc(Nc3ccc(C(=O)NC4CCN(C)CC4)cc3OC)nc2N1C1CCCC1
Result string: -0.109

Query string: GET /values?readout=normalised growth rate inhibition&item= CC(=O)Nc1cccc(-n2c(=O)n(C3CC3)c(=O)c3c(Nc4ccc(I)cc4F)n(C)c(=O)c(C)c32)c1
Result string: 0.565

Query string: GET /values?readout=normalised growth rate inhibition&item= FC(F)c1nc2ccccc2n1-c1nc(N2CCOCC2)nc(N2CCOCC2)n1
Result string: 0.161

Query string: GET /values?readout=normalised growth rate inhibition&item= Cc1[nH]c(/C=C2\C(=O)Nc3ccc(S(=O)(=O)N(C)c4cccc(Cl)c4)cc32)c(C)c1C(=O)N1CCN(C)CC1
Result string: 1.11

Query string: GET /values?readout=normalised growth rate inhibition&item= C=CC(=O)Nc1cccc(Nc2nc(NC3CCC(N(C)C)CC3)nc3c2ncn3C(C)C)c1 (stereo not given)
Result string: -0.269

Query string: GET /values?readout=normalised growth rate inhibition&item= Cc1cc(C(C)Nc2ccccc2)c2nc(N3CCOCC3)cc(=O)n2c1 (stereo not given)
Result string: 0.907

Query string: GET /values?readout=normalised growth rate inhibition&item= CO[C@H]1C[C@@H]2CC[C@@H](C)[C@@](O)(O2)C(=O)C(=O)N2CCCC[C@H]2C(=O)O[C@H]([C@H](C)C[C@@H]2CC[C@@H](O)[C@H](OC)C2)CC(=O)[C@H](C)/C=C(\C)[C@@H](O)[C@@H](OC)C(=O)[C@H](C)C[C@H](C)/C=C/C=C/C=C/1C
Result string: 0.405

Query string: GET /values?readout=normalised growth rate inhibition&item= Cc1cnc(Nc2ccc(OCCN3CCCC3)cc2)nc1Nc1cccc(S(=O)(=O)NC(C)(C)C)c1
Result string: 0.907

Query string: GET /values?readout=normalised growth rate inhibition&item= Nc1cc(C(F)(F)F)c(-c2cc(N3CCOCC3)nc(N3CCOCC3)n2)cn1
Result string: 0.145

----------
# Tested on: MCF10A
# assay-text: normalised growth rate inhibition (GR value) relative to DMSO control (GR (1 = untreated growth, 0 = cytostasis, <0 = cytotoxic)); higher = less growth inhibition
# experimental-conditions: 3.33 µM; 72 h
readout-label: normalised growth rate inhibition
Output: the number by itself.

# annotated cases, reported normalised growth rate inhibition shown
compound	readout-label	result
Cc1cc([C@@H](C)Nc2ccccc2C(=O)O)c2nc(N3CCOCC3)cc(=O)n2c1 [AZD-6482]	normalised growth rate inhibition	0.842
O=C(NC1CCNCC1)c1n[nH]cc1NC(=O)c1c(Cl)cccc1Cl [AT-7519]	normalised growth rate inhibition	-0.256
Nc1cccc(-c2cc3c(Oc4cccc(O)c4)ncnc3[nH]2)c1 [TWS-119]	normalised growth rate inhibition	0.912

Query string: GET /values?readout=normalised growth rate inhibition&item= N#CC(c1ccnc(NCCc2cccnc2)n1)c1nc2ccccc2s1 (centres undefined)
Result string: 0.987

Query string: GET /values?readout=normalised growth rate inhibition&item= N#CC[C@H](C1CCCC1)n1cc(-c2ncnc3[nH]ccc23)cn1 [ruxolitinib]
Result string: 0.948

Query string: GET /values?readout=normalised growth rate inhibition&item= COC(=O)c1ccc2c(C(=Nc3ccc(N(C)C(=O)CN4CCN(C)CC4)cc3)c3ccccc3)c(O)[nH]c2c1 [nintedanib]
Result string: 0.918

Query string: GET /values?readout=normalised growth rate inhibition&item= COC1=C2C[C@@H](C)C[C@H](OC)[C@H](O)[C@@H](C)/C=C(\C)[C@H](OC(N)=O)[C@@H](OC)/C=C\C=C(/C)C(=O)NC(=CC1=O)C2=O [geldanamycin]
Result string: -0.0997

Query string: GET /values?readout=normalised growth rate inhibition&item= C[C@]1(O)C[C@@H](c2nc(-c3ccc4ccc(-c5ccccc5)nc4c3)c3c(N)nccn32)C1 [linsitinib]
Result string: 0.731

----------
# Test system: SKBR3
# assay-text: normalised growth rate inhibition (GR value) relative to DMSO control (GR (1 = untreated growth, 0 = cytostasis, <0 = cytotoxic)); higher = less growth inhibition
# experimental-conditions: 0.37 µM; 72 h
Quick reference for normalised growth rate inhibition among some compounds
Output: the number by itself.

# annotated cases, reported normalised growth rate inhibition shown
> print(dat)
                                chem.smiles                      readout.label    result
1  C[C@@H](N)c1ccc(C(=O)Nc2ccnc3[nH]ccc23)cc1  normalised growth rate inhibition     0.782
2  CNC(=O)Nc1ccc(-c2nc(N3CC4CCC(C3)O4)c3cnn(C4CCC5(CC4)OCCO5)c3n2)cc1  normalised growth rate inhibition  -0.00643
3  O=C(NOCC1CC1)c1ccc(F)c(F)c1Nc1ccc(I)cc1Cl  normalised growth rate inhibition      1.04

Lab note: next compound to report on.
Query string: Provide the documented normalised growth rate inhibition with SKBR3 as the system for Cn1cc(-c2[nH]c3cc(NC(=O)[C@H](N)C4CCCCC4)cc4c3c2C=NNC4=O)cn1
Result string: -0.136

----------
# Tested on: HS578T
# assay-text: normalised growth rate inhibition (GR value) relative to DMSO control (GR (1 = untreated growth, 0 = cytostasis, <0 = cytotoxic)); higher = less growth inhibition
# experimental-conditions: 0.37 µM; 72 h
readout-label: normalised growth rate inhibition
Output: the number by itself.

# annotated cases, reported normalised growth rate inhibition shown
> print(dat)
                                   compound                      readout.label  result
1  Cc1nc(NC(=O)N2CCC[C@H]2C(N)=O)sc1-c1ccnc(C(C)(C)C(F)(F)F)c1  normalised growth rate inhibition   0.871
2  Cc1[nH]c(/C=C2\C(=O)Nc3ccc(S(=O)(=O)Cc4c(Cl)cccc4Cl)cc32)c(C)c1C(=O)N1CCC[C@@H]1CN1CCCC1  normalised growth rate inhibition       1
3  CCCS(=O)(=O)Nc1ccc(F)c(C(=O)c2c[nH]c3ncc(-c4ccc(Cl)cc4)cc23)c1F [vemurafenib]  normalised growth rate inhibition    1.03

Query string: GET /values?readout=normalised growth rate inhibition&item= COc1cc(C(=O)NC2CCN(C)CC2)ccc1Nc1ncc2c(n1)N(C1CCCC1)CCC(=O)N2C(C)C
Result string: 0.93

----------
Quick reference for normalised growth rate inhibition among some compounds
# System: MCF10A
# assay-text: normalised growth rate inhibition (GR value) relative to DMSO control (GR (1 = untreated growth, 0 = cytostasis, <0 = cytotoxic)); higher = less growth inhibition
# experimental-conditions: 0.04 µM; 72 h
Output: the number by itself.

# annotated cases, reported normalised growth rate inhibition shown
> print(dat)
                                chem.smiles  result
1  CC(=O)c1c(C)c2cnc(Nc3ccc(N4CCNCC4)cn3)nc2n(C2CCCC2)c1=O   0.839
2  CCN(CC)CCCCNc1ncc2cc(-c3cc(OC)cc(OC)c3)c(NC(=O)NC(C)(C)C)nc2n1    1.02
3  C#Cc1cccc(Nc2ncnc3cc(OCCOC)c(OCCOC)cc23)c1   0.973

Query string: GET /values?readout=normalised growth rate inhibition&item= COC1=C2C[C@@H](C)C[C@H](OC)[C@H](O)[C@@H](C)/C=C(\C)[C@H](OC(N)=O)[C@@H](OC)/C=C\C=C(/C)C(=O)NC(=CC1=O)C2=O
Result string: 0.111

Query string: GET /values?readout=normalised growth rate inhibition&item= O=C1c2c(O)ccc(O)c2C(=O)c2c(NCCNCCO)ccc(NCCNCCO)c21
Result string: 0.228

Query string: GET /values?readout=normalised growth rate inhibition&item= CN(c1ncccc1CNc1nc(Nc2ccc3c(c2)CC(=O)N3)ncc1C(F)(F)F)S(C)(=O)=O
Result string: 0.894

Query string: GET /values?readout=normalised growth rate inhibition&item= COc1ccc(-c2ccc3c(N4CCOC[C@@H]4C)nc(N4CCOC[C@@H]4C)nc3n2)cc1CO
Result string: 0.494

Query string: GET /values?readout=normalised growth rate inhibition&item= Cc1ccc(F)c(NC(=O)Nc2ccc(-c3cccc4[nH]nc(N)c34)cc2)c1
Result string: 1.04

Query string: GET /values?readout=normalised growth rate inhibition&item= CCn1c(-c2nonc2N)nc2c(C#CC(C)(C)O)ncc(OC[C@H]3CCCNC3)c21
Result string: 0.989

Query string: GET /values?readout=normalised growth rate inhibition&item= CC(=O)Nc1cccc(-n2c(=O)n(C3CC3)c(=O)c3c(Nc4ccc(I)cc4F)n(C)c(=O)c(C)c32)c1
Result string: 0.152

Query string: GET /values?readout=normalised growth rate inhibition&item= NC(=O)Nc1cc(-c2cccc(F)c2)sc1C(=O)N[C@H]1CCCNC1
Result string: 0.878
